The entries below come with measured cytotoxicity at 10 µM values attached.
assay: Toxicity liver stage against HepG2, at 10uM; assay type: cell-based; design: test concentration 10 uM, cell line HepG2-A16-CD81EGFP; conditions: human, HepG2-A16-CD81EGFP cells; read-out: INHIBITION
Give just the numeric value; % need not be written.

Please review the following examples before continuing.
Prompt line: Given O=C(O)[C@@H]1CN(C(=O)CN2Cc3ccccc3C2)C[C@H]1c1ccncc1 , state its recorded cytotoxicity at 10 µM.
Response line: 4.85

Prompt line: Given Cc1n[nH]c(C)c1CNC(=O)c1cn(CCC2CCCCN2)nn1 (centres undefined) , state its recorded cytotoxicity at 10 µM.
Response line: 1.61

Prompt line: Given CCN(CC)C(=O)C1CCCN1C(=O)c1cccc(-n2cnnn2)c1 (centres undefined) , state its recorded cytotoxicity at 10 µM.
Response line: -14.9

Prompt line: Given Cn1c(=O)c2cc(C(=O)NCCOCC(F)(F)F)ccc2n(C)c1=O , state its recorded cytotoxicity at 10 µM.
Response line: -13.9

Prompt line: Given CCC(=O)NS(=O)(=O)c1cccnc1Nc1cccc(Cl)c1Cl , state its recorded cytotoxicity at 10 µM.
Response line: 0.0207

Next:
Prompt line: Given Cc1cc(C(=O)NCc2cccs2)c2c(C3CCCN3)noc2n1 (centres undefined) , state its recorded cytotoxicity at 10 µM.
Response line: 6.36

Prompt line: Given CCN(CC)Cc1ccc(C(=O)N2CCCC2Cn2cc(C)cn2)o1 (centres undefined) , state its recorded cytotoxicity at 10 µM.
Response line: -11.4
